- assayName: Test Example 5: pharmacokinetics in beagles (plasma EPA, LC/MS/MS)
- Set-up: species or system male beagles
- measurementParameters: dog, in vivo, po, 600 mg
metric: Cmax (µg/mL)
All answers are understood in µg/mL, so give the number only.

Sure, the documented Cmax for CC/C=C\C/C=C\C/C=C\C/C=C\C/C=C\CCCC(=O)OCC [Comp. Ex. 5, Ethyl eicosapentaenoate] is 18.4

###

- assayName: Test Example 5: pharmacokinetics in beagles (plasma EPA, LC/MS/MS)
- Design: species or system male beagles
- measurementParameters: dog, in vivo, po, 600 mg
metric: AUC0-26

AUC0-26 in this record for CC/C=C\C/C=C\C/C=C\C/C=C\C/C=C\CCCC(=O)OCC [Comp. Ex. 5, Ethyl eicosapentaenoate] : 76600 ng·h/mL
